measured_on: Activin receptor type-2B (Homo sapiens, UniProt Q13705)
Sequence (Q13705 whole entry): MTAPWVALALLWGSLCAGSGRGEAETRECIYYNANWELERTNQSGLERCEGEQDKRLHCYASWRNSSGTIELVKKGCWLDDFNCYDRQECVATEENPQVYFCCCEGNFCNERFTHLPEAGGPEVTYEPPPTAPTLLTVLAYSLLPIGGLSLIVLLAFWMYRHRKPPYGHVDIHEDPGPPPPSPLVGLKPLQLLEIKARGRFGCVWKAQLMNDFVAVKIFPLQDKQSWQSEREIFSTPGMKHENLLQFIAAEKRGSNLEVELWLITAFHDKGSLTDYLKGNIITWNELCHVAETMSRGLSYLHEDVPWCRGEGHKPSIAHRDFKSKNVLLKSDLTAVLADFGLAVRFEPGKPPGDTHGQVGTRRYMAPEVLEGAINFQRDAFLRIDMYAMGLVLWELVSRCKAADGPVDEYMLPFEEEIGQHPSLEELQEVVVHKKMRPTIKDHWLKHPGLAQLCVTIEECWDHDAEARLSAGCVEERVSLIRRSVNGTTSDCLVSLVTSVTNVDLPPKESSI
pIC50: −log10 of the molar value.
outcome_measure: pIC50

• CC(C)c1nc(-c2ccc(F)c(NS(=O)(=O)c3c(F)cccc3F)c2)c(-c2ccnc(Nc3ccc(N4CCOCC4)nc3)n2)s1 = 8.00

* * *

measured_on: Serine/threonine-protein kinase B-raf (Homo sapiens, UniProt P15056, V600E)
Sequence (P15056 2-766 V600E limits assumed): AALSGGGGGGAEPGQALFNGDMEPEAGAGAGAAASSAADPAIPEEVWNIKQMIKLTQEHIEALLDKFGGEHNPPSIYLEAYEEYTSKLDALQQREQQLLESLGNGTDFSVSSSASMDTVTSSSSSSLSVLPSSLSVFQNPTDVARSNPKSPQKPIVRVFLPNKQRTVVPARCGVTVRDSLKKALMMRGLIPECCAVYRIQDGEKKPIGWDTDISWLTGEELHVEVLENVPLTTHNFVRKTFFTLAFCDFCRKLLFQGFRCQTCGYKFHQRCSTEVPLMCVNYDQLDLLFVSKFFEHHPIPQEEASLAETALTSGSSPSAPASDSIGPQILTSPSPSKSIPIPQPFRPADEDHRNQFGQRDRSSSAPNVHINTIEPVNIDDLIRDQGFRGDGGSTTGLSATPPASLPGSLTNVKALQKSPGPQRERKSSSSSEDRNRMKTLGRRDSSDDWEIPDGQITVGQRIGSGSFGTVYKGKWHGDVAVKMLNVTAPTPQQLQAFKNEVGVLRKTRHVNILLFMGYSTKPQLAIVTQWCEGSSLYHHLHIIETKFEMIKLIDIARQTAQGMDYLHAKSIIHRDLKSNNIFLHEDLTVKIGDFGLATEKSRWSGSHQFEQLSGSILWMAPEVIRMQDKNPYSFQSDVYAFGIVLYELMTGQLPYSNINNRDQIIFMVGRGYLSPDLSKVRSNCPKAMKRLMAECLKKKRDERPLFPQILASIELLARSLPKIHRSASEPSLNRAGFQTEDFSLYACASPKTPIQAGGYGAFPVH
assay_explanation: Inhibition of B-Raf V600E mutant
// values below are reported IC50
outcome_measure: IC50 (nM)

• CN1CCc2ccc(Nc3nccc(-c4c(-c5cccc(NC(=O)Nc6c(F)cccc6F)c5)nc5ccccn45)n3)cc2C1 = 5
• CC(=O)N1CCN(c2ccc(Nc3nccc(-c4sc(C(C)C)nc4-c4cccc(NS(=O)(=O)c5ccccc5)c4)n3)cn2)CC1 = 3.6
• CC(C)c1nc(-c2cccc(NS(=O)(=O)c3c(F)cccc3F)c2)c(-c2ccnc(Nc3ccc(N4CCOCC4)nc3)n2)s1 = 1.2
• CC(C)c1nc(-c2cc(F)cc(NS(=O)(=O)c3c(F)cccc3F)c2)c(-c2ccnc(Nc3ccc(N4CCOCC4)nc3)n2)s1 = 0.9
